target: AMPH; assay: pooled miR-30 sensor sort-seq; sequence = guide strand; details: shRNA; note: reference of the scale not given here
// label = Met if sensor-assay potency score (higher = more potent) is not less than -0.2, otherwise Not met

Example entries begin here.
{"macromolecule_sequence": "TACTTTAGAACAATCTGTGAAG", "discrete_label": "Not met"}
{"macromolecule_sequence": "TTTTACTTTAGAACAATCTGTG", "discrete_label": "Met"}
{"macromolecule_sequence": "TTGATTGCTGCTAAATATCCTC", "discrete_label": "Not met"}
{"macromolecule_sequence": "TTTTTGATGGAAGTCTTCCCAC", "discrete_label": "Not met"}

Ask: Determine whether measured sensor-assay potency score (higher = more potent) meets or exceeds -0.2 for TAGTCCACTAGCTTCCTGCTGC
Reply: Met

Ask: Is reported sensor-assay potency score (higher = more potent) greater than or equal to -0.2 here: TTTACTTTAGAACAATCTGTGA
Reply: Not met

Ask: Confirm if sensor-assay potency score (higher = more potent) reported for the sequence TAACAAAAGTGAACTCTTCAGG is -0.2 or above.
Reply: Not met

Ask: Would you say TTTTTTGCACACATGCTCCATT shows sensor-assay potency score (higher = more potent) at minimum -0.2?
Reply: Not met

----------
Listed below: sensor-assay potency score (higher = more potent) values for each entry.
biological target: ELF2; assay: pooled miR-30 sensor sort-seq; sequence = guide strand; details: shRNA
Hey, just send me the number, nothing else.

{"macromolecule_sequence": "TTTTATCTTGAAGTAGATCTAA", "quantitative_result": -0.166}
{"macromolecule_sequence": "TGATTTTCTACTCCATTGCTGG", "quantitative_result": -0.423}
{"macromolecule_sequence": "ATCATCATAAACCAGAACCTGG", "quantitative_result": -0.854}
{"macromolecule_sequence": "TATCCTTGAACTGATATACAAG", "quantitative_result": -1.19}
{"macromolecule_sequence": "TTCACTTTTGTCATCATCTATG", "quantitative_result": -0.773}
{"macromolecule_sequence": "TATGACTGCACTGATAACTCGA", "quantitative_result": 0.372}
{"macromolecule_sequence": "TATGTTTTTCGGCATATCCTTG", "quantitative_result": -0.943}
{"macromolecule_sequence": "TTTGTCATCATCTATGACCACT", "quantitative_result": -0.807}
{"macromolecule_sequence": "TTTGTCTGCAGTTGACACTGTG", "quantitative_result": 0.266}
{"macromolecule_sequence": "TAGATCTAAAAGAAACTCCCAC", "quantitative_result": 0.171}

Now, please, on to the next sequence.
Ask: I'm curious: which sensor-assay potency score (higher = more potent) was measured for TTGTTCTTCTGCCACATCTTGC tested on ELF2?
Reply: -0.939

----------
target: ALAD; test: pooled miR-30 sensor sort-seq; sequence = guide strand; conditions: shRNA
observed_property: sensor-assay potency score (higher = more potent)
Note: the reply should be a number with no unit written.

Ask: Reported sensor-assay potency score (higher = more potent) for ATGTCAGCACCTGCTCTGCGGA : what is it?
Reply: -1.76

Ask: So what does the record say about sensor-assay potency score (higher = more potent) for TGATAGGCTGTATGTCATCAGG ?
Reply: -1.65

----------
Measured sensor-assay potency score (higher = more potent), listed per entry.
target: LYZL6; test: pooled miR-30 sensor sort-seq; sequence = guide strand; details: shRNA
Response field accepts a number only; no unit should be typed.

Would you please look over these solved cases?
{"macromolecule_sequence": "TTTAGGGCAAGAAAGCTGCTGA", "quantitative_result": -0.16}
{"macromolecule_sequence": "TTGCTTTCCACAAAAGCCAGGC", "quantitative_result": -0.197}

Ask: Lookup: sensor-assay potency score (higher = more potent) / LYZL6 / CAGATCTTGACAGTCTACGTGG
Reply: -1.04

Ask: Lab note: need sensor-assay potency score (higher = more potent) for TTGATATGTTGAACTTGCTTTC on LYZL6, anyone have it?
Reply: -0.485

Ask: For LYZL6, provide sensor-assay potency score (higher = more potent) of TTTGATATGTTGAACTTGCTTT please.
Reply: 0.0932

Ask: What measured sensor-assay potency score (higher = more potent) is associated with ATAATCGTTGCACCAGTAGTGG on LYZL6?
Reply: -0.825

Ask: What is its sensor-assay potency score (higher = more potent) for LYZL6? Entry: TAATCGTTGCACCAGTAGTGGC
Reply: -1.43

Ask: Requested read-out sensor-assay potency score (higher = more potent), target or system LYZL6, entry TATCTTTGATATGTTGAACTTG
Reply: -0.231

Ask: Hello, I am looking for reported sensor-assay potency score (higher = more potent) with LYZL6 for TATGTTGAACTTGCTTTCCACA . Could you help?
Reply: -1.04
